Source: patent US20130323786A1

Would you kindly list Plateau Ratio for each of these binders?
Molecular target: T1, LINGO-Fc (human, UniProt Q96FE5 40-538, limits assumed)
T1 construct: not shown: Fc part
T1 sequence: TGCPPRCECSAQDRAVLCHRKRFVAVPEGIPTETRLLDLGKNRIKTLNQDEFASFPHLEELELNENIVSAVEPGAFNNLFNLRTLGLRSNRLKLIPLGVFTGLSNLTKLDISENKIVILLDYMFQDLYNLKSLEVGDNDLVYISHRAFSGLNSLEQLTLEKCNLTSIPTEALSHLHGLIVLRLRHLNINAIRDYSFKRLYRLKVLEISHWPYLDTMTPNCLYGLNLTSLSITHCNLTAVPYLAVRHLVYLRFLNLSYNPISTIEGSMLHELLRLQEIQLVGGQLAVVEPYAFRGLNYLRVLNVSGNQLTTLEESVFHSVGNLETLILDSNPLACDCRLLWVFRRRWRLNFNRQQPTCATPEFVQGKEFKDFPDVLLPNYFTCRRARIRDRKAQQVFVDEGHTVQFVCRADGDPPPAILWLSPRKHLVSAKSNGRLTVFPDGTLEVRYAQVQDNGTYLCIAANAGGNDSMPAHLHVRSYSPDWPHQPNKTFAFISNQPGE
Assay: direct ELISA on LINGO-Fc; OD450 at saturation relative to Li33;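 further: binding to plate-coated LINGO-Fc read by OD450, with the value at maximal saturation divided by the corresponding Li33 value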
Lab book: enter the figure in ratio, no units written.

Exercise: Provide measured Plateau Ratio value, entry: Li33 variant W50F (SEQ ID NO:148) (antibody, V domains shown, unchanged chain from WT Li33) VH: EVQLLESGGGLVQPGGSLRLSCAASGFTFSIYPMFWVRQAPGKGLEWVSFIGPSGGITKYADSVKGRFTISRDNSKNTLYLQMNSLRAEDTATYYCAREGHNDWYFDLWGRGTLVTVSS VL: DIQMTQSPGTLSLSPGERATLSCRASQSVSSYLAWYQQKPGQAPRLLIYDASNRATGIPARFSGSGSGTEFTLTISSLQSEDFAVYYCQQYDKWPLTFGGGTKVEIKR
Key: 0.86

Exercise: Provide measured Plateau Ratio value, entry: Li33 variant W94N (SEQ ID NO:168) (antibody, V domains shown, unchanged chain from WT Li33) VH: EVQLLESGGGLVQPGGSLRLSCAASGFTFSIYPMFWVRQAPGKGLEWVSWIGPSGGITKYADSVKGRFTISRDNSKNTLYLQMNSLRAEDTATYYCAREGHNDWYFDLWGRGTLVTVSS VL: DIQMTQSPGTLSLSPGERATLSCRASQSVSSYLAWYQQKPGQAPRLLIYDASNRATGIPARFSGSGSGTEFTLTISSLQSEDFAVYYCQQYDKNPLTFGGGTKVEIKR
Key: 1.05
